# METHOD DESCRIPTION: Clearance in rat administered via gavage by HPLC-MS/MS method
# Type: ADME, organism-based
# STUDY CONDITIONS: in vivo, po
EXPERIMENTAL READOUT: CL/F (mL/min/kg)
One number for each entry, in mL/min/kg.

A selection of reference data follows.
N#Cc1ccc(N2C(=O)C3Cc4ccccc4N3C2=S)cc1C(F)(F)F (centres undefined) ... 26.5
N#Cc1ccc(N2C(=O)C3Cc4ccccc4CN3C2=S)cc1C(F)(F)F (centres undefined) ... 20.5
CCOC(=O)Nc1ccc2c(c1)CN1C(=S)N(c3ccc(C#N)c(C(F)(F)F)c3)C(=O)C1C2 (centres undefined) ... 9.5

Moving on to another compound below.
Reported CL/F of CCOC(=O)Nc1cc2c(cc1F)CC1C(=O)N(c3ccc(C#N)c(C(F)(F)F)c3)C(=S)N1C2 (centres undefined) : 2.43
